Test system: 885512-296-R-J2-PDC complex spheroid viability
Experiment: Anticancer human tumor 885512-296-R-J2-PDC patient-derived breast carcinoma cell line growth inhibition [GQUAD]
Conditions: second compound 1 µM; first compound 0.000999 µM; stronger effect = lower value
The label 1 is reserved for viability, T/C strictly under 30%; 0 covers values equal to or above it.

Consider the worked cases shown below.
(Q) Lab note: confirm whether the reported viability, T/C for this compound is below 30%, equality not counting. compound: CC[C@@]1(O)C(=O)OCc2c1cc1n(c2=O)Cc2cc3c(CN(C)C)c(O)ccc3nc2-1 + CN(C)c1ccc(Nc2c3ccc(NC(=O)CCN4CCCC4)cc3nc3cc(NC(=O)CCN4CCCC4)ccc23)cc1
(A) 0

(Q) Item: CCc1c2c(nc3ccc(O)cc13)-c1cc3c(c(=O)n1C2)COC(=O)[C@]3(O)CC + Cc1cnc(CNC(=O)c2c(=O)c3ccc(N4CCCN(C)CC4)nc3n3c2sc2ccccc23)cn1
(A) 1

(Q) Item: Cn1ncnc1[C@H]1c2n[nH]c(=O)c3cc(F)cc(c23)N[C@@H]1c1ccc(F)cc1 + Cc1[nH]c2ccc(F)cc2c1-c1nc2c3cccnc3c3ncccc3c2[nH]1
(A) 0

(Q) Item: CC[C@@]1(O)C(=O)OCc2c1cc1n(c2=O)Cc2cc3c(CN(C)C)c(O)ccc3nc2-1 + Cc1[nH]c2ccc(F)cc2c1-c1nc2c3cccnc3c3ncccc3c2[nH]1
(A) 0

(Q) Item: CCc1c2c(nc3ccc(O)cc13)-c1cc3c(c(=O)n1C2)COC(=O)[C@]3(O)CC + CN(C)c1ccc(Nc2c3ccc(NC(=O)CCN4CCCC4)cc3nc3cc(NC(=O)CCN4CCCC4)ccc23)cc1
(A) 1

(Q) Item: CC[C@@]1(O)C(=O)OCc2c1cc1n(c2=O)Cc2cc3c(CN(C)C)c(O)ccc3nc2-1 + Cc1cnc(CNC(=O)c2c(=O)c3ccc(N4CCCN(C)CC4)nc3n3c2sc2ccccc23)cn1
(A) 1

(Q) Item: Cc1[nH]c2ccccc2c1CCNCc1ccc(/C=C/C(=O)NO)cc1 + Cc1cnc(CNC(=O)c2c(=O)c3ccc(N4CCCN(C)CC4)nc3n3c2sc2ccccc23)cn1
(A) 1

(Q) Item: Cc1[nH]c2ccccc2c1CCNCc1ccc(/C=C/C(=O)NO)cc1 + CN(C)c1ccc(Nc2c3ccc(NC(=O)CCN4CCCC4)cc3nc3cc(NC(=O)CCN4CCCC4)ccc23)cc1
(A) 0

(Q) Item: Cc1[nH]c2ccccc2c1CCNCc1ccc(/C=C/C(=O)NO)cc1 + Cc1[nH]c2ccc(F)cc2c1-c1nc2c3cccnc3c3ncccc3c2[nH]1
(A) 0

(Q) Item: CCc1c2c(nc3ccc(O)cc13)-c1cc3c(c(=O)n1C2)COC(=O)[C@]3(O)CC + Cc1[nH]c2ccc(F)cc2c1-c1nc2c3cccnc3c3ncccc3c2[nH]1
(A) 1

Others:
(Q) Lab note: confirm whether the reported viability, T/C for this compound is below 30%, equality not counting. compound: Cn1ncnc1[C@H]1c2n[nH]c(=O)c3cc(F)cc(c23)N[C@@H]1c1ccc(F)cc1 + CN(C)c1ccc(Nc2c3ccc(NC(=O)CCN4CCCC4)cc3nc3cc(NC(=O)CCN4CCCC4)ccc23)cc1
(A) 0

(Q) Item: Cn1ncnc1[C@H]1c2n[nH]c(=O)c3cc(F)cc(c23)N[C@@H]1c1ccc(F)cc1 + Cc1cnc(CNC(=O)c2c(=O)c3ccc(N4CCCN(C)CC4)nc3n3c2sc2ccccc23)cn1
(A) 1

###

System: 885512-296-R-J2-PDC complex spheroid viability
Test: Anticancer human tumor 885512-296-R-J2-PDC cell line growth inhibition [GQUAD];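 also: spheroids exposed to the compounds for one week; percent of tumor spheroid viability relative to DMSO vehicle control wells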
Conditions: second compound 10 µM; first compound 1 µM; stronger effect = lower value
PROPERTY_MEASURED: viability, T/C

(Q) Look up viability, T/C with 885512-296-R-J2-PDC complex spheroid viability for this compound: CC(C)n1c(=O)n(C)c2cnc3cc(F)c(-c4ccc(OCCCN5CCCCC5)nc4)cc3c21 + CN(C)c1ccc(Nc2c3ccc(NC(=O)CCN4CCCC4)cc3nc3cc(NC(=O)CCN4CCCC4)ccc23)cc1
(A) 10.1%

(Q) Item: Cc1cccc(N(C)C(=O)C2C(O)CCN2c2nc(C)cc(C(F)(F)F)c2C#N)c1 (stereo unspecified) + Cc1[nH]c2ccc(F)cc2c1-c1nc2c3cccnc3c3ncccc3c2[nH]1
(A) 2.33%

(Q) Item: CC(C)(O)C1CCC(Nc2ccc3ncc(-c4cccc(C(F)(F)F)c4)n3n2)CC1 (stereo unspecified) + Cc1cnc(CNC(=O)c2c(=O)c3ccc(N4CCCN(C)CC4)nc3n3c2sc2ccccc23)cn1
(A) 0.18%

(Q) Item: O=C(c1cc(Cc2n[nH]c(=O)c3ccccc23)ccc1F)N1CCN(C(=O)C2CC2)CC1 + Cc1[nH]c2ccc(F)cc2c1-c1nc2c3cccnc3c3ncccc3c2[nH]1
(A) 1.59%

(Q) Item: CC1COCCN1c1cc(-c2ccnn2C)c2ccnc(-c3ccn[nH]3)c2n1 (stereo unspecified) + Cc1[nH]c2ccc(F)cc2c1-c1nc2c3cccnc3c3ncccc3c2[nH]1
(A) 2.19%

(Q) Item: CC(=O)O[C@H]1C(=O)[C@@]2(C)[C@H]([C@H](OC(=O)c3ccccc3)[C@]3(O)C[C@H](OC(=O)[C@H](O)[C@@H](NC(=O)c4ccccc4)c4ccccc4)C(C)=C1C3(C)C)[C@]1(OC(C)=O)CO[C@@H]1C[C@@H]2O + Cc1cnc(CNC(=O)c2c(=O)c3ccc(N4CCCN(C)CC4)nc3n3c2sc2ccccc23)cn1
(A) 0.12%

Others:
(Q) Look up viability, T/C with 885512-296-R-J2-PDC complex spheroid viability for this compound: O=c1[nH]cc(F)c(=O)[nH]1 + Cc1cnc(CNC(=O)c2c(=O)c3ccc(N4CCCN(C)CC4)nc3n3c2sc2ccccc23)cn1
(A) 0.13%

(Q) Item: Nc1ccn(C2OC(CO)C(O)C2(F)F)c(=O)n1 (stereo unspecified) + Cc1[nH]c2ccc(F)cc2c1-c1nc2c3cccnc3c3ncccc3c2[nH]1
(A) 1.35%

(Q) Item: COc1cccc2c1C(=O)c1c(O)c3c(c(O)c1C2=O)CC(O)(C(=O)CO)CC3OC1CC(N)C(O)C(C)O1 (stereo unspecified) + CN(C)c1ccc(Nc2c3ccc(NC(=O)CCN4CCCC4)cc3nc3cc(NC(=O)CCN4CCCC4)ccc23)cc1
(A) 5.9%

(Q) Item: COc1cccc2c1C(=O)c1c(O)c3c(c(O)c1C2=O)CC(O)(C(=O)CO)CC3OC1CC(N)C(O)C(C)O1 (stereo unspecified) + Cc1[nH]c2ccc(F)cc2c1-c1nc2c3cccnc3c3ncccc3c2[nH]1
(A) 1.15%

(Q) Item: CC1COCCN1c1cc(C2(S(C)(=N)=O)CC2)nc(-c2ccnc3[nH]ccc23)n1 (stereo unspecified) + Cc1[nH]c2ccc(F)cc2c1-c1nc2c3cccnc3c3ncccc3c2[nH]1
(A) 1.57%

(Q) Item: CC1COCCN1c1cc(C2(O)CC3CCC(C2)O3)c2cnn(-c3ccn[nH]3)c2n1 (stereo unspecified) + Cc1cnc(CNC(=O)c2c(=O)c3ccc(N4CCCN(C)CC4)nc3n3c2sc2ccccc23)cn1
(A) 0.07%

(Q) Item: Cc1cccc(N(C)C(=O)C2C(O)CCN2c2nc(C)cc(C(F)(F)F)c2C#N)c1 (stereo unspecified) + CN(C)c1ccc(Nc2c3ccc(NC(=O)CCN4CCCC4)cc3nc3cc(NC(=O)CCN4CCCC4)ccc23)cc1
(A) 19.3%

(Q) Item: O=C(c1cc(Cc2n[nH]c(=O)c3ccccc23)ccc1F)N1CCN(C(=O)C2CC2)CC1 + Cc1cnc(CNC(=O)c2c(=O)c3ccc(N4CCCN(C)CC4)nc3n3c2sc2ccccc23)cn1
(A) 0.19%

(Q) Item: C#Cc1c(F)ccc2cc(O)cc(-c3ncc4c(N5CC6CCC(C5)N6)nc(OCC56CCCN5CC(F)C6)nc4c3F)c12 (stereo unspecified) + CN(C)c1ccc(Nc2c3ccc(NC(=O)CCN4CCCC4)cc3nc3cc(NC(=O)CCN4CCCC4)ccc23)cc1
(A) 13.7%

(Q) Item: C#Cc1c(F)ccc2cc(O)cc(-c3ncc4c(N5CC6CCC(C5)N6)nc(OCC56CCCN5CC(F)C6)nc4c3F)c12 (stereo unspecified) + Cc1cnc(CNC(=O)c2c(=O)c3ccc(N4CCCN(C)CC4)nc3n3c2sc2ccccc23)cn1
(A) 0.13%

###

Tested on: 885512-296-R-J2-PDC complex spheroid viability
Assay: Anticancer human tumor 885512-296-R-J2-PDC cell line growth inhibition [GQUAD];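 also: spheroids exposed to the compounds for one week; percent of tumor spheroid viability relative to DMSO vehicle control wells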
Settings: second compound 0.0316 µM; first compound 0.0316 µM; stronger effect = lower value
PROPERTY_MEASURED: viability, T/C

Here's what some known entries look like.
(Q) Please give the measured viability, T/C for this compound: CC(C)n1c(=O)n(C)c2cnc3cc(F)c(-c4ccc(OCCCN5CCCCC5)nc4)cc3c21 + Cc1[nH]c2ccc(F)cc2c1-c1nc2c3cccnc3c3ncccc3c2[nH]1
(A) 84.4%

(Q) Item: COc1ccc([C@@H](O)c2cc(-c3ncnc4cc(N5CCOCC5)ccc34)c(F)cc2Cl)nn1 + Cc1[nH]c2ccc(F)cc2c1-c1nc2c3cccnc3c3ncccc3c2[nH]1
(A) 114%

(Q) Item: O=c1[nH]cc(F)c(=O)[nH]1 + CN(C)c1ccc(Nc2c3ccc(NC(=O)CCN4CCCC4)cc3nc3cc(NC(=O)CCN4CCCC4)ccc23)cc1
(A) 100%

(Q) Item: CCCS(=O)(=O)Nc1ccc(F)c(C(=O)c2c[nH]c3ncc(-c4ccc(Cl)cc4)cc23)c1F + Cc1cnc(CNC(=O)c2c(=O)c3ccc(N4CCCN(C)CC4)nc3n3c2sc2ccccc23)cn1
(A) 97.5%

Note: attention shifts to another entry.
(Q) Please give the measured viability, T/C for this compound: CCc1c2c(nc3ccc(O)cc13)-c1cc3c(c(=O)n1C2)COC(=O)[C@]3(O)CC + Cc1cnc(CNC(=O)c2c(=O)c3ccc(N4CCCN(C)CC4)nc3n3c2sc2ccccc23)cn1
(A) 3.27%

// data source = PubChem BioAssay AID2060490
